Test system: Escherichia coli
test.summary: Minimum inhibitory concentration (MIC) by agar dilution
Type: cell-based
settings: Escherichia coli, UC9855, 20 h; E. coli UC 9855, Table CI; read-out: Minimum Inhibitory Concentration
property.name: MIC (µg/mL)

> print(dat)
                                   compound  value.reported
1  C#CC(C)(C)n1cc(C(=O)O)c(=O)c2cc(F)c(N3CCC(N)C3)c(F)c21 (racemic) [B]            0.25
2  C#CCn1cc(C(=O)O)c(=O)c2cc(F)c(N3CCC(N)C3)c(F)c21 (racemic) [D]               2
3  O=C(O)c1cn(C2CC2)c2cc(N3CCNCC3)c(F)cc2c1=O [Ciprofloxacin, reference compound]           0.015
4  C#CC(C)(C)n1cc(C(=O)O)c(=O)c2cc(F)c(N3CCC(N)C3)nc21.CS(=O)(=O)O (racemic) [E]            0.06
